- assayed_target: T1, Bzz1-2, P38822
- T1 sequence (P38822 568-633, looked up): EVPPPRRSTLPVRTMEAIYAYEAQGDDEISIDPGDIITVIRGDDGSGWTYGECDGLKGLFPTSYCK
- procedure_details: SPOT array
- test_settings: median of control spots 4538
Param label: returns 1.0 when SPOT intensity < 1, returns 0.0 otherwise, including exact equality.

| binder | discrete_label |
| --- | --- |
| KTKQQKPAIPQKKSF | 0.0 |
| NSMRPPLLIPAATTK | 1.0 |
| PPIPIVPSSPAPPLP | 1.0 |
| ISRRRLPVIMHRLKM | 0.0 |
| QPPLPSSAPPIPTSH | 1.0 |
| NGRRRPKFRVQLSGN | 1.0 |
| RHLKLVPSTPMDIPW | 0.0 |
| NLPKRKPPKLQGPFS | 0.0 |
| APPPPPRRATPEKKP | 1.0 |
| RNNRPVPPPPPMRTT | 0.0 |
| WRPRIVPILPYITRL | 1.0 |
| GPPPPLPPPLFPSSS | 1.0 |
| QRIRKIPGIPLMSVG | 0.0 |
| IKTRSVPKIPSIESV | 0.0 |
| KMSRSPPRPPSLKII | 0.0 |
| IHTRRPSSTSQYLIR | 0.0 |
| ALFRLSFFFPLDPAY | 0.0 |
| AKDLIVPRRPEWNEG | 0.0 |
| LLLLFVPDSPYDPAI | 1.0 |
| GDHPKGPPPPPPPPD | 1.0 |
| TKFRISLGLPVGAIM | 0.0 |
| NNQRRKPLLLNIGDH | 0.0 |
| RVTRKRPREPKSTND | 0.0 |
